The origin of these recorded values is ChEMBL document CHEMBL3885861.

Assignment: determine reported RALB for the given compounds.
# Species on record: Rattus norvegicus
# Protocol summary: Open TG-GATES - Regimen: Daily Repeat
# Assay type: toxicity, organism-based, Sprague-Dawley
# Set-up: regimen Daily Repeat, gender Male, age 6 weeks
# Condition description: in vivo, po, 0 mg/kg, […], tissue Plasma, route gavage, dose level Control, time 7 day
Answers are plain numbers, in g/dL.

Here are 10 compounds together with their reported answers.
Compound	Units of measure	Measured
O=C(O)c1cc(/N=N/c2ccc(S(=O)(=O)Nc3ccccn3)cc2)ccc1O [SULFASALAZINE]	g/dL	3.4
COc1ccc(Cc2nccc3cc(OC)c(OC)cc23)cc1OC [PAPAVERINE]	g/dL	3
O=C(O)c1cn(C2CC2)c2cc(N3CCNCC3)c(F)cc2c1=O [CIPROFLOXACIN]	g/dL	3.9
CN(C)CCC=C1c2ccccc2CCc2ccccc21 [AMITRIPTYLINE]	g/dL	2.6
CSc1ccc2c(c1)N(CCC1CCCCN1C)c1ccccc1S2 (stereo not given) [THIORIDAZINE]	g/dL	4
NC(=O)N/N=C/c1ccc([N+](=O)[O-])o1 [NITROFURAZONE]	g/dL	2.6
CCCC(CCC)C(=O)O [VALPROIC ACID]	g/dL	3.4
CCc1cc(C(N)=S)ccn1 [ETHIONAMIDE]	g/dL	3.7
COc1ccc2c(c1)c(CC(=O)O)c(C)n2C(=O)c1ccc(Cl)cc1 [INDOMETHACIN]	g/dL	4
Cn1c(=O)c2[nH]cnc2n(C)c1=O.O [THEOPHYLLINE]	g/dL	3

# batch size: 3; output RALB per entry
1. Clc1ccccc1CN1CCc2sccc2C1 [TICLOPIDINE]
2. C[C@H](CS)C(=O)N1CCC[C@H]1C(=O)O [CAPTOPRIL]
3. CC(=O)Oc1ccccc1C(=O)O [ASPIRIN]

[3.4, 3.8, 3.4]

# batch size: 2; output RALB per entry
1. CO[C@H]1/C=C/O[C@@]2(C)Oc3c(C)c(O)c4c(O)c(c(/C=N/N5CCN(C)CC5)c(O)c4c3C2=O)NC(=O)/C(C)=C\C=C\[C@H](C)[C@H](O)[C@@H](C)[C@@H](O)[C@@H](C)[C@H](OC(C)=O)[C@@H]1C [RIFAMPIN]
2. NC(=O)N1c2ccccc2C=Cc2ccccc21 [CARBAMAZEPINE]

[3.9, 3.5]
